This section presents molecules with their documented MIC values.
- Test system: E. Coli ATCC 25922
- Assay overview: Test for evaluating antibacterial activity (E. coli), broth microdilution MIC
- Assay type: cell-based
- Condition notes: Escherichia coli, ATCC25922; 35° C., 18 hours, cation-adjusted Mueller-Hinton medium
Where a name gives a salt, the structure may show the parent alone.

CNc1cc(F)cc2cc(C(=O)Nc3ccc(C(=O)O)cc3CN(C)C3CCCCC3)c(=O)[nH]c12 [Example 70, hydrochloride] :: 8 µg/mL
CNc1cc(F)cc2c(NC[C@H]3C[C@H](N)C3)c(C(=O)Nc3ccc(C(=O)O)cc3)c(=O)[nH]c12.O=CO :: > 32 µg/mL
CNc1cc(F)cc2c(NC3CC34CCNCC4)c(C(=O)Nc3ccc(C(=O)O)cc3)c(=O)[nH]c12.O=CO (stereo not shown) :: > 64 µg/mL

Now consider the entry below.
Fill blank: measured MIC of the molecule CNc1cc(F)cc2cc(C(=O)Nc3cccnc3)c(=O)[nH]c12 is ____.
> 4 µg/mL

* * *

Catalogue of molecules with associated MIC
- Tested on: E. Coli ATCC 25922

CNc1cc(F)cc2cc(C(=O)Nc3cnc(NCCN4CCOCC4)nc3)c(=O)[nH]c12 :: 8 µg/mL
CNc1cc(F)cc2cc(C(=O)Nc3cnc(C(=O)OC)nc3)c(=O)[nH]c12 :: > 16 µg/mL
CNc1cc(F)cc2cc(C(=O)Nc3ccc(C(=O)O)cc3CCCCO)c(=O)[nH]c12 :: > 32 µg/mL
CNc1cc(F)cc2cc(C(=O)Nc3ccc(C(=O)O)cc3CN3CCCC(N)C3)c(=O)[nH]c12.Cl (centres unmarked) :: > 32 µg/mL

Item CNc1cccc2cc(C(=O)Nc3ccc(C(=O)N4CCOCC4)cc3)c(=O)[nH]c12 with E. Coli ATCC 25922 - MIC?
> 32 µg/mL

Please state recorded MIC (tested on E. Coli ATCC 25922) of CNc1cc(F)cc2cc(C(=O)Nc3ccc(C(=O)NS(C)(=O)=O)cc3)c(=O)[nH]c12
> 32 µg/mL

Please provide the recorded MIC for CNc1cc(F)cc2cc(C(=O)Nc3ccc(C(=O)O)cc3/C=C/CCO)c(=O)[nH]c12 , tested on E. Coli ATCC 25922.
> 64 µg/mL

* * *

Entries with reported MIC on E. Coli ATCC 25922

A selection of reference data follows.
CCCCCN(CCCCC)Cc1cc(C(=O)O)ccc1NC(=O)c1cc2cncc(NC)c2[nH]c1=O :: > 64 µg/mL
CNc1cccc2cc(C(=O)Nc3ccccc3CN(C)C3CCCCC3)c(=O)[nH]c12 :: > 32 µg/mL
CNc1cccc2cc(C(=O)Nc3cnc(NCCN4CCN(C)CC4)nc3)c(=O)[nH]c12 :: > 64 µg/mL

// next entry
Param readout= MIC; system= E. Coli ATCC 25922; entry= CNc1cc(F)cc2cc(CNc3ccc(C(=O)O)cc3CN(C)C3CCCCC3)c(=O)[nH]c12 ; returns value.
> 16 µg/mL

* * *

- Test system: E. Coli ATCC 25922
Observable: MIC

CNc1cc(F)cc2cc(C(=O)N(C)c3ccc(C(=O)O)cc3)c(=O)[nH]c12 [Example 56] :: > 64 µg/mL
CNc1cccc2cc(C(=O)Nc3ccccc3)c(=O)[nH]c12 [Example 11] :: > 64 µg/mL
CNc1cccc2cc(C(=O)Nc3cnc(N)s3)c(=O)[nH]c12.Cl [Example 25] :: > 16 µg/mL
CNc1cccc2cc(C(=O)Nc3ccc(-c4noc(=O)[nH]4)cc3)c(=O)[nH]c12 [Example 18] :: > 0.5 µg/mL
CNc1cccc2cc(C(=O)Nc3ccc(CC(=O)O)cc3)c(=O)[nH]c12 [Example 166] :: > 16 µg/mL
CNc1cc(F)cc2cc(C(=O)Nc3ccc(-c4noc(=O)[nH]4)cc3)c(=O)[nH]c12 [Example 144] :: > 8 µg/mL

Give its MIC value. Item: CNc1cc(F)cc2cc(C(=O)Nc3ccc(S(C)(=N)=O)cc3)c(=O)[nH]c12 (centres unmarked) [Example 151]
> 16 µg/mL

So what does the record say about MIC for CNc1cccc2cc(C(=O)Nc3cccc(=O)[nH]3)c(=O)[nH]c12 [Example 16] ?
> 64 µg/mL

Which MIC value is on record for CNc1cc(F)cc2c(O)c(C(=O)Nc3ccc(C(=N)N)cc3)c(=O)[nH]c12 [Example 150] ?
> 16 µg/mL

MIC for CNc1cc(F)cc2cc(C(=O)Nc3ccc(C(=O)NCCN4CCOCC4)cc3CN(C)C3CCCCC3)c(=O)[nH]c12 [Example 75] ?
8 µg/mL

Which MIC value is on record for CNc1cc(F)cc2c(NCCCN)c(C(=O)Nc3ccc(C(=O)O)cc3)c(=O)[nH]c12.O=CO [Example 132] ?
> 8 µg/mL

// lookup MIC for CNc1cc(F)cc2c(O)c(C(=O)Nc3ccccc3)c(=O)[nH]c12 [Example 129]
> 16 µg/mL

Name the recorded MIC for CNc1cc(F)cc2cc(C(=O)Nc3ccc(C(=O)O)c(O)c3)c(=O)[nH]c12 [Example 58] .
> 32 µg/mL

* * *

Listing of entries alongside the reported IC50.
- Target or system: E. coli DNA gyrase (Escherichia coli, UniProt P0AES6)
- Construct: made in house; host or cells: E. coli BL21 (DE3)
- Assay overview: Test for evaluating the activity of inhibiting E. coli DNA gyrase enzyme (Method 2, supercoiling, recombinant gyrA/gyrB complex)
- Assay type: biochemical
- Condition notes: Method 2; read-out: E. Coli Gyrase supercoiling IC50

CNc1cc(F)cc2cc(C(=O)Nc3ccc(NC(=O)NS(C)(=O)=O)cc3)c(=O)[nH]c12 [Example 154] :: 9.78 nM
CNc1cc(F)cc2cc(C(=O)Nc3ccc(C(N)=O)cc3CN(C)C3CCCCC3)c(=O)[nH]c12 [Example 121] :: 2.48 nM

Value wanted: IC50 (E. coli DNA gyrase (Escherichia coli, UniProt P0AES6)) of entry CNc1cccc2cc(C(=O)NCc3cccc(C(=O)O)c3)c(=O)[nH]c12 [Example 168]
1670 nM

API: value(readout= IC50, system= E. coli DNA gyrase (Escherichia coli, UniProt P0AES6), query= CNc1cc(F)cc2cc(C(=O)Nc3ccc(-c4noc(=O)[nH]4)cc3)c(=O)[nH]c12 [Example 144] )
0.48 nM

Query for E. coli DNA gyrase (Escherichia coli, UniProt P0AES6): what IC50 does the record show for CNc1cc(F)cc2cc(C(=O)Nc3ccc(C(=O)O)cc3CCCCO)c(=O)[nH]c12 [Example 120] ?
32.5 nM

* * *

- Tested on: E. Coli ATCC 25922
Observable: MIC

CNc1cc(F)cc2cc(C(=O)Nc3ccccc3CN(C)C3CCCCC3)c(=O)[nH]c12 [Example 52] :: 16 µg/mL
CNc1cc(F)cc2c(OC)c(C(=O)Nc3ccc(C(=O)O)cc3)c(=O)[nH]c12 [Example 118] :: > 64 µg/mL
CNc1cccc2cc(C(=O)Nc3ccc(C(=O)NCCC[C@H](N)C(=O)O)cc3)c(=O)[nH]c12 [Example 49] :: > 8 µg/mL
CNc1cccc2cc(C(=O)OCc3ccncc3N)c(=O)[nH]c12 [Example 19] :: > 16 µg/mL

Test system E. Coli ATCC 25922; read-out MIC; what value for CNc1cccc2cc(C(=O)NCCc3nc(O)cc(O)n3)c(=O)[nH]c12 [Example 32] ?
> 64 µg/mL

Hi! What's the reported MIC for CNc1cc(F)cc2cc(C(=O)Nc3ccc(C(=O)O)cc3/C=C/CCN(C)C)c(=O)[nH]c12.Cl [Example 125] on E. Coli ATCC 25922?
> 32 µg/mL

# query: MIC | item CNc1cc(F)cc2cc(C(=O)Nc3cnc(C(=O)NCCO)nc3)c(=O)[nH]c12 [Example 71] | system: E. Coli ATCC 25922
> 8 µg/mL

What is its MIC for E. Coli ATCC 25922? Entry: CNc1cccc2cc(C(=O)Nc3cccc(CC(=O)O)c3)c(=O)[nH]c12 [Example 4]
> 64 µg/mL

What measured MIC is associated with CNc1cc(F)cc2cc(C(=O)Nc3ccccc3)c(=O)[nH]c12 [Example 76] on E. Coli ATCC 25922?
> 32 µg/mL

Any idea what MIC came out for CNc1cc(F)cc2cc(C(=O)Nc3ccc(C(=O)O)cc3CNC3CCCCC3)c(=O)[nH]c12.O=C(O)C(F)(F)F [Example 113] on E. Coli ATCC 25922?
32 µg/mL

Recorded MIC for CNc1cc(F)cc2cc(C(=O)Nc3ccc(C(=O)O)cc3CN(C)C)c(=O)[nH]c12 [Example 85] with E. Coli ATCC 25922, please?
> 4 µg/mL

Requested read-out MIC, target or system E. Coli ATCC 25922, entry CNc1cc(F)cc2cc(C(=O)Nc3cnccc3CO)c(=O)[nH]c12 [Example 91]
> 16 µg/mL

I'm curious: which MIC was measured for CNc1cc(F)cc2cc(C(=O)Nc3cnc(C(=O)O)nc3)c(=O)[nH]c12 [Example 65] tested on E. Coli ATCC 25922?
> 16 µg/mL

Please provide the recorded MIC for O=C(O)c1ccc(NC(=O)c2cc3ccccc3[nH]c2=O)cc1 [Reference Example 1, reference compound] , tested on E. Coli ATCC 25922.
> 64 µg/mL
